Let's look at some compounds and their measured SILAC ratio Kiaa0664.
# tested_system: AEA-DA lipid probe targets in Neuro2a cells (Mus musculus, UniProt Q5SW19)
# assay_context: competitor 25 μM
Just the number, please.

Illustrative cases are given below, each with its answer.
| compound | SILAC ratio Kiaa0664 |
| --- | --- |
| CN1CCN(C(=O)c2c(-c3ccccc3)c3cc([N+](=O)[O-])ccc3n2C)CC1 | 2.1 |
| O=C(/C=C/c1cccnc1)NCCCCC1CCN(C(=O)c2ccccc2)CC1 [FK-866, reference compound] | 1.2 |
| CN1CCN(C(=O)c2[nH]c3ccc([N+](=O)[O-])cc3c2-c2ccccc2)CC1 | 2.2 |

Continue with the next compound.
Query: // fetch SILAC ratio Kiaa0664 for C=CCN(C)CCCCCCOc1ccc(C(=O)c2ccc(Br)cc2)c(F)c1 [Ro 48-8071, reference compound] ; system: AEA-DA lipid probe targets in Neuro2a cells (Mus musculus, UniProt Q5SW19)
Reply: 1.0

---

# tested_system: AEA-DA lipid probe targets in Neuro2a cells (Mus musculus)
# assay_context: competitor 25 μM
readout_name: SILAC ratio, Timm22
# output: bare number, no unit

Past entries and their recorded results:
| molecule | value_observed |
| --- | --- |
| CN1CCN(C(=O)c2[nH]c3ccc([N+](=O)[O-])cc3c2-c2ccccc2)CC1 [MJN228] | 1.3 |
| C=CCN(C)CCCCCCOc1ccc(C(=O)c2ccc(Br)cc2)c(F)c1 [Ro 48-8071, reference compound] | 1.1 |
| CN1CCN(C(=O)c2c(-c3ccccc3)c3cc([N+](=O)[O-])ccc3n2C)CC1 [KML110] | 1.4 |

Please look at the following molecule next.
Query: Give SILAC ratio, Timm22 for the following molecule: O=C(/C=C/c1cccnc1)NCCCCC1CCN(C(=O)c2ccccc2)CC1 [FK-866, reference compound]
Reply: 1.2

---

# tested_system: AEA-DA lipid probe targets in Neuro2a cells (Mus musculus, UniProt Q62261)
# Sequence (Q62261 whole entry): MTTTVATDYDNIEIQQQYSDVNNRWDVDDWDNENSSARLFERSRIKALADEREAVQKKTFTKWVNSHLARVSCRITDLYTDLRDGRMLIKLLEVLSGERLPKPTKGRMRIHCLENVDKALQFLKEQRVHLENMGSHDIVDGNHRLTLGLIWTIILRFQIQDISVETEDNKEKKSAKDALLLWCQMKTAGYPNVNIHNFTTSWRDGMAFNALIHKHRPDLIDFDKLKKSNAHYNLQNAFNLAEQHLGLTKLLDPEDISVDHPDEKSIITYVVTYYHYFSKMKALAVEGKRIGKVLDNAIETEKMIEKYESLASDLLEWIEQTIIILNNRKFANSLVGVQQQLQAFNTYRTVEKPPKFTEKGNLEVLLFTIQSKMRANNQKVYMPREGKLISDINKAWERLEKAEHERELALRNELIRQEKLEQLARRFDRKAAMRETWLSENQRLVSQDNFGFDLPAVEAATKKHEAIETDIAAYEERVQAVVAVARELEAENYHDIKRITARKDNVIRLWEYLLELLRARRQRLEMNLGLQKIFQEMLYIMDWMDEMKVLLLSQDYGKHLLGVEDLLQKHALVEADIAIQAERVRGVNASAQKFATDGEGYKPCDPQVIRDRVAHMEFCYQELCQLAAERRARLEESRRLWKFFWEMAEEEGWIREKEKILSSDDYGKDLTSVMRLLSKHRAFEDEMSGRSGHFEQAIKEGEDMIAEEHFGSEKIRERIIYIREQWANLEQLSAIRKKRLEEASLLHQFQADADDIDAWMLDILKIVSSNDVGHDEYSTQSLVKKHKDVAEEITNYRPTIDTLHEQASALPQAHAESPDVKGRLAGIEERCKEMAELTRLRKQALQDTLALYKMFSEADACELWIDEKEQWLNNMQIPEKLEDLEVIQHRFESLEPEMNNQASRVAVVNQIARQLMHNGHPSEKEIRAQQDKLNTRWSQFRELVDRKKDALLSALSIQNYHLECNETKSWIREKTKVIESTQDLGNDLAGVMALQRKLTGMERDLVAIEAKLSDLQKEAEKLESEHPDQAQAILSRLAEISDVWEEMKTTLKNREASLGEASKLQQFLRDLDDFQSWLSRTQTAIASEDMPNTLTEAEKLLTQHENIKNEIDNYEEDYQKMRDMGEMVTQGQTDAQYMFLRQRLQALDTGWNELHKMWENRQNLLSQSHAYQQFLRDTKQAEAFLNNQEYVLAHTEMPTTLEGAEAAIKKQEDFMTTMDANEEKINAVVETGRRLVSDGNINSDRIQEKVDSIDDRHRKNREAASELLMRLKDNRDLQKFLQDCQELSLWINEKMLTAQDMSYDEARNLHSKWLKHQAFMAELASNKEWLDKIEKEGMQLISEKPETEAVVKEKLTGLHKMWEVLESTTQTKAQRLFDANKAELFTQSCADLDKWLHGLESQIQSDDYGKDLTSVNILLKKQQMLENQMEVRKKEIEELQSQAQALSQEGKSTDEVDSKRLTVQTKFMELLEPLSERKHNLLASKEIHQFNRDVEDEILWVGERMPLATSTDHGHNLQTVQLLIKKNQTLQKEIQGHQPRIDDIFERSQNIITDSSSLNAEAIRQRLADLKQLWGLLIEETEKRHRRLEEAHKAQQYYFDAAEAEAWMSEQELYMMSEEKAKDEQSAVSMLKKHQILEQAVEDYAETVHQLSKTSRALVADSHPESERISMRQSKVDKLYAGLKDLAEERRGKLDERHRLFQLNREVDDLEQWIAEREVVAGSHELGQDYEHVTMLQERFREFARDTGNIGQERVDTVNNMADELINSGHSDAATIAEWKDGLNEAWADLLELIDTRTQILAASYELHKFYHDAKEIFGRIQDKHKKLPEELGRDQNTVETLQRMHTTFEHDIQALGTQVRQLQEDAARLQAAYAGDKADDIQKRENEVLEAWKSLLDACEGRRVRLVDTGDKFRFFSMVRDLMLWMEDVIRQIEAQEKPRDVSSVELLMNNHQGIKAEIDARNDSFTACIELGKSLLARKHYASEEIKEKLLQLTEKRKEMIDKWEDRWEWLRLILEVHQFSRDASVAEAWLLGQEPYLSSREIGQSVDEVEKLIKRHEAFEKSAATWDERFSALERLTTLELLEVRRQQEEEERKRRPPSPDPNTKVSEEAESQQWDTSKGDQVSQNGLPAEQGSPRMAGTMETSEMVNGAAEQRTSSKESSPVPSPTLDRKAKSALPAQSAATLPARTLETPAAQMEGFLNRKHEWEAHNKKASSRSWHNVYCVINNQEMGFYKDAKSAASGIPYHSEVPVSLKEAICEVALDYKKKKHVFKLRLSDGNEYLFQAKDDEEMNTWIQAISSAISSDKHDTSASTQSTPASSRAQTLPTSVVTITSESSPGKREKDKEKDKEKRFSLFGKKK
# assay_context: competitor 25 μM
Recorded SILAC ratio Sptbn1 values for a group of molecules are listed next.
# print the numeric value only

Record excerpt, results attached:
| molecule | tested_system | SILAC ratio Sptbn1 |
| --- | --- | --- |
| CN1CCN(C(=O)c2[nH]c3ccc([N+](=O)[O-])cc3c2-c2ccccc2)CC1 | AEA-DA lipid probe targets in Neuro2a cells (Mus musculus, UniProt Q62261) | 1.2 |
| CN1CCN(C(=O)c2c(-c3ccccc3)c3cc([N+](=O)[O-])ccc3n2C)CC1 | AEA-DA lipid probe targets in Neuro2a cells (Mus musculus, UniProt Q62261) | 1.2 |
| O=C(/C=C/c1cccnc1)NCCCCC1CCN(C(=O)c2ccccc2)CC1 [FK-866, reference compound] | AEA-DA lipid probe targets in Neuro2a cells (Mus musculus, UniProt Q62261) | 1.3 |

Alright, here's another molecule for you.
Query: Fill in reported SILAC ratio Sptbn1 for this entry: C=CCN(C)CCCCCCOc1ccc(C(=O)c2ccc(Br)cc2)c(F)c1 [Ro 48-8071, reference compound]
Reply: 1.0

---

# tested_system: AEA-DA lipid probe targets in Neuro2a cells (Mus musculus, UniProt Q8VCB1)
# Sequence (Q8VCB1 whole entry): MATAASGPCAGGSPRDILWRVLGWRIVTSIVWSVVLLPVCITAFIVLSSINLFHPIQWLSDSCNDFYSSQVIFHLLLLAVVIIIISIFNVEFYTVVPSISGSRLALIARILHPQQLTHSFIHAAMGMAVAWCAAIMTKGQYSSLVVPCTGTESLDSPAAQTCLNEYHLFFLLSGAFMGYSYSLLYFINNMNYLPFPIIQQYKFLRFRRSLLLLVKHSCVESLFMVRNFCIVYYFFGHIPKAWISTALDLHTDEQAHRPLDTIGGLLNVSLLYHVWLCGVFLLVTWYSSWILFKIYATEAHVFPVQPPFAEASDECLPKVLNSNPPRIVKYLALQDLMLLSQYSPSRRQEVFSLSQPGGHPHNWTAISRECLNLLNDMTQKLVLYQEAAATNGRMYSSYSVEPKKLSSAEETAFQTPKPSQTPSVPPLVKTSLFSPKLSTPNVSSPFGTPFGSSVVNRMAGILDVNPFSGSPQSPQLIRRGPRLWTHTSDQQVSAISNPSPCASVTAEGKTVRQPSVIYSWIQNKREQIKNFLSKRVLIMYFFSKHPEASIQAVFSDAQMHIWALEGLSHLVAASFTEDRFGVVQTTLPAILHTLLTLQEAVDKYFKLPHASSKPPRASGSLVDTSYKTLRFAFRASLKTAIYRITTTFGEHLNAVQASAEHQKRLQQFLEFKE
# assay_context: competitor 25 μM
readout_name: SILAC ratio, Tmem48
Form: value (number only, do not type unit).

Use these answered entries as a reference point.
| compound | value_observed |
| --- | --- |
| CN1CCN(C(=O)c2[nH]c3ccc([N+](=O)[O-])cc3c2-c2ccccc2)CC1 [MJN228] | 1.5 |
| O=C(/C=C/c1cccnc1)NCCCCC1CCN(C(=O)c2ccccc2)CC1 [FK-866, reference compound] | 1.2 |
| C=CCN(C)CCCCCCOc1ccc(C(=O)c2ccc(Br)cc2)c(F)c1 [Ro 48-8071, reference compound] | 1.1 |

Query: Report SILAC ratio, Tmem48, nothing else, for this compound: CN1CCN(C(=O)c2c(-c3ccccc3)c3cc([N+](=O)[O-])ccc3n2C)CC1 [KML110]
Reply: 1.6

---

SILAC ratio, Clptm1 by entry:
# tested_system: AEA-DA lipid probe targets in Neuro2a cells (Mus musculus, UniProt Q8VBZ3)
# Sequence (Q8VBZ3 whole entry): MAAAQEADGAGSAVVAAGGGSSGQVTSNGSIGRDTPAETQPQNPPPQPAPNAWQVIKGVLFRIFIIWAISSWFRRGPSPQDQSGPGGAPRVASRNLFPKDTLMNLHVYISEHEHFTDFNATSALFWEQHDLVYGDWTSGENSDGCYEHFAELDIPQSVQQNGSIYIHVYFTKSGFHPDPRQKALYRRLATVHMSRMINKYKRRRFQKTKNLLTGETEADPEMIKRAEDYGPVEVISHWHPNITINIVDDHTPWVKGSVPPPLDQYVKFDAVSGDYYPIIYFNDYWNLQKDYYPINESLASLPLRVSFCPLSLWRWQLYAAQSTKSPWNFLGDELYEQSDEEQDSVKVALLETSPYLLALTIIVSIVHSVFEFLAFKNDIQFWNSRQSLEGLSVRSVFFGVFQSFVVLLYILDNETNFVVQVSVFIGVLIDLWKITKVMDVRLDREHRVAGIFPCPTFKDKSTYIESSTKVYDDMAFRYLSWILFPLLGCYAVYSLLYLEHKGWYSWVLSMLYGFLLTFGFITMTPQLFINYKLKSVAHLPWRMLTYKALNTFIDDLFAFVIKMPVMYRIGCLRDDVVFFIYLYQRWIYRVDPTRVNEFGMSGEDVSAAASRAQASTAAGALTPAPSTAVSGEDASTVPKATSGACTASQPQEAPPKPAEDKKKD
# assay_context: competitor 25 μM
API note: the answer field is a bare number with no unit suffix.

# example entries with known answers
| compound | value_observed |
| --- | --- |
| CN1CCN(C(=O)c2[nH]c3ccc([N+](=O)[O-])cc3c2-c2ccccc2)CC1 | 1.6 |
| C=CCN(C)CCCCCCOc1ccc(C(=O)c2ccc(Br)cc2)c(F)c1 [Ro 48-8071, reference compound] | 1.2 |
| O=C(/C=C/c1cccnc1)NCCCCC1CCN(C(=O)c2ccccc2)CC1 [FK-866, reference compound] | 1.1 |

// next entry
Query: Name the recorded SILAC ratio, Clptm1 of the item CN1CCN(C(=O)c2c(-c3ccccc3)c3cc([N+](=O)[O-])ccc3n2C)CC1 in your answer.
Reply: 1.5

---

# tested_system: AEA-DA lipid probe targets in Neuro2a cells (Mus musculus)
# Sequence (Q99JY4 1-376): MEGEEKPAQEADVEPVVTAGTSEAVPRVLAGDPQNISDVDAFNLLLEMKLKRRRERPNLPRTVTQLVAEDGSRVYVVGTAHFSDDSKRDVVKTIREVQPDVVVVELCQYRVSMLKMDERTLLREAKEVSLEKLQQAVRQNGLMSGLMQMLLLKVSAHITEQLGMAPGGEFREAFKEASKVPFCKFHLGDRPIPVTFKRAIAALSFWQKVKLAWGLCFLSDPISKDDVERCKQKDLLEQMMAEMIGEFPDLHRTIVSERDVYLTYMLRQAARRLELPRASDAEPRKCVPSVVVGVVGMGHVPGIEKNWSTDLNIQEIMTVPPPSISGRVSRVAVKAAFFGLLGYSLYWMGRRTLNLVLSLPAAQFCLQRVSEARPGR
# assay_context: competitor 25 μM
readout_name: SILAC ratio, Trabd
Lab note: write the figure by itself, no unit.

| compound | SILAC ratio, Trabd |
| --- | --- |
| O=C(/C=C/c1cccnc1)NCCCCC1CCN(C(=O)c2ccccc2)CC1 [FK-866, reference compound] | 1.2 |
| CN1CCN(C(=O)c2c(-c3ccccc3)c3cc([N+](=O)[O-])ccc3n2C)CC1 | 1.5 |
| C=CCN(C)CCCCCCOc1ccc(C(=O)c2ccc(Br)cc2)c(F)c1 [Ro 48-8071, reference compound] | 1.0 |

Query: Fill in: SILAC ratio, Trabd on AEA-DA lipid probe targets in Neuro2a cells (Mus musculus), entry CN1CCN(C(=O)c2[nH]c3ccc([N+](=O)[O-])cc3c2-c2ccccc2)CC1
Reply: 1.3

---

# tested_system: AEA-DA lipid probe targets in Neuro2a cells (Mus musculus, UniProt O35129)
# Sequence (O35129 whole entry): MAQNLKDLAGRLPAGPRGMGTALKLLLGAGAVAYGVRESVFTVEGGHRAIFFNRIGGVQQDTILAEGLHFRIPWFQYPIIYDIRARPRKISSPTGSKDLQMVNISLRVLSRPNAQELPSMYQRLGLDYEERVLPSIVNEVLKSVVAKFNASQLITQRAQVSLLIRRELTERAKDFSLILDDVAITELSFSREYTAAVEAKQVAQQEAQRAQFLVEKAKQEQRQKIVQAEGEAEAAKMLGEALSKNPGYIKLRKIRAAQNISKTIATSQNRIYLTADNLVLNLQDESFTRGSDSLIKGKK
# assay_context: competitor 25 μM
readout_name: SILAC ratio Phb2
Format: numeric value only, no unit, no commentary.

Below: 3 compounds and their reported SILAC ratio Phb2.
| compound | SILAC ratio Phb2 |
| --- | --- |
| O=C(/C=C/c1cccnc1)NCCCCC1CCN(C(=O)c2ccccc2)CC1 [FK-866, reference compound] | 1.1 |
| CN1CCN(C(=O)c2c(-c3ccccc3)c3cc([N+](=O)[O-])ccc3n2C)CC1 [KML110] | 1.3 |
| CN1CCN(C(=O)c2[nH]c3ccc([N+](=O)[O-])cc3c2-c2ccccc2)CC1 [MJN228] | 1.2 |

Now look at this entry.
Query: Given the compound C=CCN(C)CCCCCCOc1ccc(C(=O)c2ccc(Br)cc2)c(F)c1 [Ro 48-8071, reference compound] , write its reported SILAC ratio Phb2.
Reply: 0.9

---

Quick list: SILAC ratio, Canx per entry.
# tested_system: AEA-DA lipid probe targets in Neuro2a cells (Mus musculus, UniProt P35564)
# Sequence (P35564 21-591): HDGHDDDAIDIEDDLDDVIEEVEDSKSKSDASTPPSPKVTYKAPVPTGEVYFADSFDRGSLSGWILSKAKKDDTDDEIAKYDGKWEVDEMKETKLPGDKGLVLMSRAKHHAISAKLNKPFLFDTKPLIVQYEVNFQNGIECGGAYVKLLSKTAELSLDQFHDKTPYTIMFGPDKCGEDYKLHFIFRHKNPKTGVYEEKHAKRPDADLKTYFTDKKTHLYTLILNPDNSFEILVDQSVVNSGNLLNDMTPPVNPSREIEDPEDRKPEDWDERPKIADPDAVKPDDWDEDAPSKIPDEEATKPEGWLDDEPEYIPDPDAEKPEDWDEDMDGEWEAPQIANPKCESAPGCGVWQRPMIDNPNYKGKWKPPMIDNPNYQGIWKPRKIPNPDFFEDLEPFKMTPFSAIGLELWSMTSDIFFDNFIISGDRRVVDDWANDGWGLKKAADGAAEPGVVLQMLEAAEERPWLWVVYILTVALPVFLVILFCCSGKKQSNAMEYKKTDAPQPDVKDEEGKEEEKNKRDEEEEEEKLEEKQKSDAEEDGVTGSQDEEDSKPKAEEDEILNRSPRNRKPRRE
# assay_context: competitor 25 μM
Please give the numeric answer without any surrounding text.

The examples below pair each entry with its known result.
| compound | tested_system | SILAC ratio, Canx |
| --- | --- | --- |
| CN1CCN(C(=O)c2c(-c3ccccc3)c3cc([N+](=O)[O-])ccc3n2C)CC1 [KML110] | AEA-DA lipid probe targets in Neuro2a cells (Mus musculus, UniProt P35564) | 1.6 |
| O=C(/C=C/c1cccnc1)NCCCCC1CCN(C(=O)c2ccccc2)CC1 [FK-866, reference compound] | AEA-DA lipid probe targets in Neuro2a cells (Mus musculus, UniProt P35564) | 1.2 |
| CN1CCN(C(=O)c2[nH]c3ccc([N+](=O)[O-])cc3c2-c2ccccc2)CC1 [MJN228] | AEA-DA lipid probe targets in Neuro2a cells (Mus musculus, UniProt P35564) | 1.7 |

Query: Given the compound C=CCN(C)CCCCCCOc1ccc(C(=O)c2ccc(Br)cc2)c(F)c1 [Ro 48-8071, reference compound] , write its reported SILAC ratio, Canx.
Reply: 1.2

This collection of values is drawn from patent US10168342B2.
